test: small-molecule binders of probe aNOTCH3, primary screen, biochemical, small-molecule microarray, 635/667 nm fluorescence (AID 1120); details: higher = more signal;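 note: probe is a biotin-tagged antibody raised against NOTCH3 rather than NOTCH3 protein; score merges spot fluorescence near 667 nm with spot signal to noise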
Could you please classify the records by composite z-score using these ranges: Low: < -0.1; Mid: ≥ -0.1 and < 0.03; High: ≥ 0.03

# count of solved cases: 10
COc1cc(CO)cc(I)c1O[C@H]1C=C(C(=O)NCCO)C[C@@H](N(Cc2ccc(F)cc2)C(=O)C2CCCO2)[C@@H]1O (stereo not given in full) :: Low
CN(C)CCCNC(=O)[C@@H]1c2ccccc2C(=O)N(CC23CC4CC(CC(C4)C2)C3)[C@H]1c1ccc(CO)cc1 :: Mid
O=C(CS)NCCCCCCNC(=O)[C@H]1C[C@H]2C(=O)N[C@@H](Cc3ccccc3)C(=O)N2[C@H]1c1cccc(OCCO)c1 :: High
CC(C)C(=C=CC[C@@H](O)c1ccccc1OCCO)C[C@@H](O)COCc1ccccc1 :: Low
COc1ccc([Si](C)(C)[C@@H]2[C@@H](CCO)O[C@]3(C(=O)N(Cc4cccc(N5C(=O)c6ccccc6Oc6ccccc65)c4)c4ccccc43)[C@H]2C)cc1 :: Low
COc1c(C)cc(-c2cc3c(c(-c4ccccc4)n2)[Si](C(C)C)(C(C)C)OC3)cc1C :: Low
O=C1OCCC=C[C@H]2OC34C=CCN(c5ccc(Cl)cc5)C(=O)[C@H]3N(CCCCCO)C(=O)[C@@H]4C12 (stereo not given in full) :: Mid
Cc1ccc(S[C@]2(C(=O)NC(C)C)CC(=O)N(C3Cc4ccccc4C3)[C@@H]2c2ccc(CO)cc2I)cc1 :: Low
CCCCC(=C=CC[C@@H](O)c1ccc(OCCO)cc1)C[C@@H](O)COCc1ccccc1 :: Low
COC(=O)[C@@]1(Cc2ccccc2)[C@H]2c3cc(C(=O)N4CCCC4)n(Cc4cc(F)cc5c4OCOC5)c3C[C@H]2CN1C(=O)c1ccccc1 :: High

**Query** Into which category would you place "NC(=O)NCC#Cc1ccc2c(c1)[C@]1(C(=O)N2)[C@H](C(=O)O)[C@H]2C(=O)O[C@H](c3ccccc3)[C@H](c3ccccc3)N2[C@@H]1c1ccccc1OCCO" ?
**Result** High

**Query** The entry to classify is CCOc1cc(C(O)C2C=CC3C(=O)N(C)C(=O)C3N2N2CCCCC2)ccc1O (stereo not given) ; which class holds it?
**Result** High

**Query** Bin? "CC(C)(C)OC(=O)CC[C@]1(C(=O)O)N=C(c2ccc(OCCCO)cc2)O[C@H]1c1ccccc1CN=[N+]=[N-]"
**Result** Mid

**Query** For "C=CCOC(=O)[C@@H]1[C@H]2C(=O)O[C@H](c3ccccc3)[C@H](c3ccccc3)N2[C@H](c2ccc(OCCOC(=O)[C@H]3C[C@H]4C(=O)N[C@@H](CCCCNC(C)=O)C(=O)N4[C@H]3c3cccc(OCCO)c3)cc2)[C@@]12C(=O)Nc1ccc(I)cc12" , which composite z-score bin applies?
**Result** Mid
